System: SK-MES-1
Experiment: relative viability (nuclei count vs DMSO), 5 days (fraction); higher = more cells survive
Settings: first compound 0.0002 µM

# compound, relative viability
rows = [
    ("CC(=O)O[C@@]12CO[C@@H]1C[C@H](O)[C@@]1(C)C(=O)[C@H](O)C3=C(C)[C@@H](OC(=O)[C@H](O)[C@@H](NC(=O)OC(C)(C)C)c4ccccc4)C[C@@](O)([C@@H](OC(=O)c4ccccc4)[C@H]21)C3(C)C [Docetaxel] + O=C(c1cc(Cc2n[nH]c(=O)c3ccccc23)ccc1F)N1CCN(C(=O)C2CC2)CC1 [Olaparib] (partner 8 µM)", 0.719),
]

====

Tested on: HCC-44
Assay: relative viability (nuclei count vs DMSO), 5 days (fraction); higher = more cells survive
Details: first compound 1.265 µM
Decide using relative viability alone. Strictly below 0.5: t. Equal to or above 0.5: f.

# compound, study_target, label
rows = [
    ("Cc1sc2c(c1C)C(c1ccc(Cl)cc1)=N[C@@H](CC(=O)OC(C)(C)C)c1nnc(C)n1-2 [JQ1] + CC(C)C[C@H](NC(=O)[C@H](Cc1ccccc1)NC(=O)c1cnccn1)B(O)O [Bortezomib] (partner 0.002 µM)", "HCC-44", "t"),
    ("Cc1sc2c(c1C)C(c1ccc(Cl)cc1)=N[C@@H](CC(=O)OC(C)(C)C)c1nnc(C)n1-2 [JQ1] + NC(=O)Nc1cc(-c2cccc(F)c2)sc1C(=O)N[C@H]1CCCNC1 [AZD7762] (partner 0.2 µM)", "HCC-44", "f"),
    ("Cc1sc2c(c1C)C(c1ccc(Cl)cc1)=N[C@@H](CC(=O)OC(C)(C)C)c1nnc(C)n1-2 [JQ1] + O=C(CCCCCCC(=O)Nc1ccccc1)NO [Vorinostat] (partner 1 µM)", "HCC-44", "f"),
    ("Cc1sc2c(c1C)C(c1ccc(Cl)cc1)=N[C@@H](CC(=O)OC(C)(C)C)c1nnc(C)n1-2 [JQ1] + N=C(N)NC(=N)NCCc1ccccc1 [Phenformin] (partner 250 µM)", "HCC-44", "t"),
]

====

Tested on: NCI-H838
Assay: relative viability (nuclei count vs DMSO), 5 days (fraction); higher = more cells survive
Settings: first compound 158.11 µM
Decide using relative viability alone. Strictly below 0.3: criterion met. Equal to or above 0.3: criterion not met.

# compound, study_target, label
rows = [
    ("O=C(O)CCCCC(CCSCc1ccccc1)SCc1ccccc1 (centres undefined) [CPI-613] + Nc1ncn([C@H]2C[C@H](O)[C@@H](CO)O2)c(=O)n1 [Decitabine] (partner 2 µM)", "NCI-H838", "criterion met"),
    ("O=C(O)CCCCC(CCSCc1ccccc1)SCc1ccccc1 (centres undefined) [CPI-613] + CC(C)C[C@H](NC(=O)[C@H](Cc1ccccc1)NC(=O)c1cnccn1)B(O)O [Bortezomib] (partner 0.002 µM)", "NCI-H838", "criterion not met"),
    ("O=C(O)CCCCC(CCSCc1ccccc1)SCc1ccccc1 (centres undefined) [CPI-613] + C[C@]1(O)C[C@@H](c2nc(-c3ccc4ccc(-c5ccccc5)nc4c3)c3c(N)nccn32)C1 [Linsitinib] (partner 1 µM)", "NCI-H838", "criterion not met"),
    ("O=C(O)CCCCC(CCSCc1ccccc1)SCc1ccccc1 (centres undefined) [CPI-613] + N=C(N)NC(=N)NCCc1ccccc1 [Phenformin] (partner 250 µM)", "NCI-H838", "criterion met"),
    ("O=C(O)CCCCC(CCSCc1ccccc1)SCc1ccccc1 (centres undefined) [CPI-613] + CC(=O)Nc1cccc(-n2c(=O)n(C3CC3)c(=O)c3c(Nc4ccc(I)cc4F)n(C)c(=O)c(C)c32)c1 [Trametinib] (partner 0.02 µM)", "NCI-H838", "criterion met"),
    ("O=C(O)CCCCC(CCSCc1ccccc1)SCc1ccccc1 (centres undefined) [CPI-613] + O=C(c1cc(Cc2n[nH]c(=O)c3ccccc23)ccc1F)N1CCN(C(=O)C2CC2)CC1 [Olaparib] (partner 8 µM)", "NCI-H838", "criterion met"),
    ("O=C(O)CCCCC(CCSCc1ccccc1)SCc1ccccc1 (centres undefined) [CPI-613] + Cc1nc(NC(=O)N2CCC[C@H]2C(N)=O)sc1-c1ccnc(C(C)(C)C(F)(F)F)c1 [Alpelisib] (partner 2 µM)", "NCI-H838", "criterion not met"),
    ("O=C(O)CCCCC(CCSCc1ccccc1)SCc1ccccc1 (centres undefined) [CPI-613] + Cc1cc(Nc2cc(N3CCN(C)CC3)nc(Sc3ccc(NC(=O)C4CC4)cc3)n2)n[nH]1 [Tozasertib] (partner 0.1 µM)", "NCI-H838", "criterion met"),
]

====

Test system: NCI-H2126
Test: relative viability (nuclei count vs DMSO), 5 days (fraction); higher = more cells survive
Conditions: first compound 0.006325 µM
# relative viability annotations
metric_name: relative viability

# compound, metric_name, measured_result
rows = [
    ("CC(=O)O[C@@]12CO[C@@H]1C[C@H](O)[C@@]1(C)C(=O)[C@H](O)C3=C(C)[C@@H](OC(=O)[C@H](O)[C@@H](NC(=O)OC(C)(C)C)c4ccccc4)C[C@@](O)([C@@H](OC(=O)c4ccccc4)[C@H]21)C3(C)C [Docetaxel] + Nc1nc2[nH]cc(CCc3ccc(C(=O)N[C@@H](CCC(=O)O)C(=O)O)cc3)c2c(=O)[nH]1 [Pemetrexed] (partner 0.2 µM)", "relative viability", 0.391),
    ("CC(=O)O[C@@]12CO[C@@H]1C[C@H](O)[C@@]1(C)C(=O)[C@H](O)C3=C(C)[C@@H](OC(=O)[C@H](O)[C@@H](NC(=O)OC(C)(C)C)c4ccccc4)C[C@@](O)([C@@H](OC(=O)c4ccccc4)[C@H]21)C3(C)C [Docetaxel] + Cc1cc(Nc2cc(N3CCN(C)CC3)nc(Sc3ccc(NC(=O)C4CC4)cc3)n2)n[nH]1 [Tozasertib] (partner 0.1 µM)", "relative viability", 0.354),
]

====

System: UMC-11
Experiment: relative viability (nuclei count vs DMSO), 5 days (fraction); higher = more cells survive
Details: first compound 2.53 µM
metric_name: relative viability

# compound, measured_result
measured = [
    ("O=c1[nH]c2ccccc2n1C1CCN(CCCC(c2ccc(F)cc2)c2ccc(F)cc2)CC1 [Pimozide] + CS(=O)(=O)N1CCN(Cc2cc3nc(-c4cccc5[nH]ncc45)nc(N4CCOCC4)c3s2)CC1 [Pictilisib] (partner 1 µM)", 0.699),
    ("O=c1[nH]c2ccccc2n1C1CCN(CCCC(c2ccc(F)cc2)c2ccc(F)cc2)CC1 [Pimozide] + Nc1ncn([C@H]2C[C@H](O)[C@@H](CO)O2)c(=O)n1 [Decitabine] (partner 2 µM)", 0.593),
]

====

System: NCI-H727
Assay: relative viability (nuclei count vs DMSO), 5 days (fraction); higher = more cells survive
Settings: first compound 0.08 µM

# molecule, relative viability
rows = [
    ("Cc1cnc(-c2cnc(NCCNc3ccc(C#N)cn3)nc2-c2ccc(Cl)cc2Cl)[nH]1 + O=C(c1cc(Cc2n[nH]c(=O)c3ccccc23)ccc1F)N1CCN(C(=O)C2CC2)CC1 [Olaparib] (partner 8 µM)", 0.69),
    ("O=c1[nH]c2ccccc2n1C1CCN(CCCC(c2ccc(F)cc2)c2ccc(F)cc2)CC1 [Pimozide] + CS(=O)(=O)N1CCN(Cc2cc3nc(-c4cccc5[nH]ncc45)nc(N4CCOCC4)c3s2)CC1 [Pictilisib] (partner 1 µM)", 0.367),
    ("O=c1[nH]c2ccccc2n1C1CCN(CCCC(c2ccc(F)cc2)c2ccc(F)cc2)CC1 [Pimozide] + NC(=O)Nc1cc(-c2cccc(F)c2)sc1C(=O)N[C@H]1CCCNC1 [AZD7762] (partner 0.2 µM)", 0.496),
    ("O=c1[nH]c2ccccc2n1C1CCN(CCCC(c2ccc(F)cc2)c2ccc(F)cc2)CC1 [Pimozide] + C[C@@H](Oc1cc(-c2cnn(C3CCNCC3)c2)cnc1N)c1c(Cl)ccc(F)c1Cl [Crizotinib] (partner 1 µM)", 0.958),
]

====

Test system: NCI-H1355
Assay: relative viability (nuclei count vs DMSO), 5 days (fraction); higher = more cells survive
Details: first compound 0.08 µM
// class assignment uses relative viability with these ranges: A (below 0.7), B (0.7 to below 0.8), C (0.8 or more)

# compound, study_target, label
records = [
    ("O=c1[nH]c2ccccc2n1C1CCN(CCCC(c2ccc(F)cc2)c2ccc(F)cc2)CC1 [Pimozide] + Cc1cc(Nc2cc(N3CCN(C)CC3)nc(Sc3ccc(NC(=O)C4CC4)cc3)n2)n[nH]1 [Tozasertib] (partner 0.1 µM)", "NCI-H1355", "A"),
    ("O=c1[nH]c2ccccc2n1C1CCN(CCCC(c2ccc(F)cc2)c2ccc(F)cc2)CC1 [Pimozide] + NC(=O)Nc1cc(-c2cccc(F)c2)sc1C(=O)N[C@H]1CCCNC1 [AZD7762] (partner 0.2 µM)", "NCI-H1355", "B"),
    ("O=c1[nH]c2ccccc2n1C1CCN(CCCC(c2ccc(F)cc2)c2ccc(F)cc2)CC1 [Pimozide] + CC(C)C[C@H](NC(=O)[C@H](Cc1ccccc1)NC(=O)c1cnccn1)B(O)O [Bortezomib] (partner 0.002 µM)", "NCI-H1355", "C"),
    ("O=c1[nH]c2ccccc2n1C1CCN(CCCC(c2ccc(F)cc2)c2ccc(F)cc2)CC1 [Pimozide] + O=C(CCCCCCC(=O)Nc1ccccc1)NO [Vorinostat] (partner 1 µM)", "NCI-H1355", "A"),
    ("Cc1cnc(-c2cnc(NCCNc3ccc(C#N)cn3)nc2-c2ccc(Cl)cc2Cl)[nH]1 + CC1(C)CCC(c2ccc(Cl)cc2)=C(CN2CCN(c3ccc(C(=O)NS(=O)(=O)c4ccc(N[C@H](CCN5CCOCC5)CSc5ccccc5)c(S(=O)(=O)C(F)(F)F)c4)cc3)CC2)C1 [Navitoclax] (partner 0.5 µM)", "NCI-H1355", "C"),
    ("O=c1[nH]c2ccccc2n1C1CCN(CCCC(c2ccc(F)cc2)c2ccc(F)cc2)CC1 [Pimozide] + CC1(C)CCC(c2ccc(Cl)cc2)=C(CN2CCN(c3ccc(C(=O)NS(=O)(=O)c4ccc(N[C@H](CCN5CCOCC5)CSc5ccccc5)c(S(=O)(=O)C(F)(F)F)c4)cc3)CC2)C1 [Navitoclax] (partner 0.5 µM)", "NCI-H1355", "C"),
]

Reference source for all entries: the supplement of paper PMC10307832
